# Test Target: T1, human/cynomolgus monkey ROR1 protein (Acro Biosystems, Cat. No.: RO1-H522y) (human/cynomolgus monkey, UniProt Q01973 30-403)
# T1 construct: Bought SPR analyte
# T1 sequence (Q01973 30-403 limits assumed): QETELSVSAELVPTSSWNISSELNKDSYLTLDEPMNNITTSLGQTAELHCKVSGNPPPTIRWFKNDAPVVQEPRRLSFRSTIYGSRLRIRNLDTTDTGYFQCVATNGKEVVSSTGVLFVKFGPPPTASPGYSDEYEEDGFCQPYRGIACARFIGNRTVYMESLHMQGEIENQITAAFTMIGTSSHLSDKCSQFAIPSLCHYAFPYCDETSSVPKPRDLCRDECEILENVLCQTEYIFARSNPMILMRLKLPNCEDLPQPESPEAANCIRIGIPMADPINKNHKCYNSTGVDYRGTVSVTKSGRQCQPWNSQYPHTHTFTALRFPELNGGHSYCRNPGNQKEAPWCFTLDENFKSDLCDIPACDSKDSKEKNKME
# Protocol Summary: SPR (Biacore), antibody captured on anti-hIgG CM5 chip, ROR1 protein as analyte, 1:1 model
Reported kon is given for each of the following binders.
Dear colleague, please return just the value in M⁻¹ s⁻¹, with no unit written.

Sample records with kon:
ch137G11D10 (antibody, human IgG1, kappa, V domains shown, also called chimeric antibody of m137G11D10) VH: DVQLQESGPGLVKPSQSLSLTCTVTGYSITSDYAWNWIRQFPGNKLEWMGYITYSASTSYNPSLKSRISITRDTSKNQFFLQLNSVTTEDTATYYCARGAGTYYFDYWGQGSTLTVSS VL: DIVLTQSPASLSVATGEKVTIRCITSTDIDEDMNWYQQKPGEPPKLLISEDNSLRPGVPSRFSSSGYGTDFVLTIENTLSEDVADYYCLQTNNLPLTFGAGTKLEIKR :: 5.16e+06
ch29H5D8 (antibody, human IgG1, kappa, V domains shown, also called chimeric antibody of m29H5D8) VH: EVQLQQSGAELARPGASVKLSCKASGYTFTNYGISWVKQRTGQGLEWIGEIYPRSVNTYYSAKFKGKATLTADKSSSTAYMELRSLTSEDSAVYFCARHYYGSSLDYWGQGTTLTVSS VL: DIVLTQSPASLSVATGEKVTIRCITSSDIEDDMNWYQQKPGEPPKLLISEGNSLRPGVPSRFSSSGYGTDFVFTIENTLSEDVADYYCLQSDNIFTFGSGTKLEIKR :: 3.7e+06
UC-961 (antibody, V domains shown) VH: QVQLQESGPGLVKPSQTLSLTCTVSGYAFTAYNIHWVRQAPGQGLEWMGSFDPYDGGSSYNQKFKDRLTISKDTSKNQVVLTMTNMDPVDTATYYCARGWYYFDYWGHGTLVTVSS VL: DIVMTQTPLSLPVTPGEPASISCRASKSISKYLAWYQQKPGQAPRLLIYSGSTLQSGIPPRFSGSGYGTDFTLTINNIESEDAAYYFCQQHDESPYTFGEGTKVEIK :: 1.33e+06

Here's the next entry for you.
-- ask Any idea what kon was measured for ch3G9B1 (antibody, human IgG1, kappa, V domains shown, also called chimeric antibody of m3G9B1) VH: QVQLQQSGTELARPGASVKLSCKASGYTFTSYGITWVKQRTGQGLEWIGEIYPRSGNTYFNEKFKGKATLTADKSSSTAYMELRSLTSEDSAVYFCARDRTGTGVDDYWGQGTTLTVSS VL: DIVLTQSPASLSMAIGEKVTIRCITNTDIDDDMSWYQQKPGEPPNLLISEGNTLRPGVPSRFSSSGYGRDFVFTIENMLSEDVADYYCLQSNNLPYTFGGGTKLEIKR ?
-- reply 2.36e+06

meta.source: patent EP4772535A1
